Recorded values, source patent US20100222559.

test system: rabbit anti-GST IgG + glutathione-S-transferase (mixture) (Oryctolagus cuniculus / Schistosoma japonicum); test: filter; conditions: 100 nM GST + 100 nM anti-GST IgG

- Sequence entry: "GGGAGAAUUCCGACCAGAAGCAAAUUGCCGGGCCUUGGAAGCCAAGUCGCUUUCCUCUCUCCUCCUUCUUCU [SEQ ID NO: 3 RNA aptamer]"
  binding signal [% bound]: 14.4
- Sequence entry: "GGGAGAAUUCCGACCAGAAGAAGUUCGAUACGCCGUGGGGUGACGUUGGCUGCCCUUUCCUCUCUCCUCCUUCUUCU [SEQ ID NO: 1 RNA aptamer]"
  binding signal [% bound]: 13.6
- Sequence entry: "GGGAGAAUUCCGACCAGAAGUUUUUAAACCGCGCCUUGGAAGCGUACGUUGGCCUUUCCUCUCUCCUCCUUCUUCU [SEQ ID NO: 2 RNA aptamer]"
  binding signal [% bound]: 14.2
- Sequence entry: "GGGAGAAUUCCGACCAGAAGCGCAAGCCGGCCCUUGGAAGGCUAGUCGGUCUUUCCUCUCUCCUCCUUCUUCU [SEQ ID NO: 4 RNA aptamer]"
  binding signal [% bound]: 20.7
- Sequence entry: "GGGAGAAUUCCGACCAGAAGUUCGAUACGCCGUGGGGUGACGUUGGCUACCUUUCCUCUCUCCUCCUUCUUCU [SEQ ID NO: 5 RNA aptamer]"
  binding signal [% bound]: 48.8
